# System: HRV-14
# method: Antirhinoviral H1-HeLa cell culture assay (cell protection, XTT), HRV-14
# Assay type: cell-based, human rhinovirus
# measurement.conditions: Rhinovirus B, HRV14, H1-HeLa, 48 h, read-out: Cell Protection EC50
measure: EC50 (µM)
Provide only the numeric value, understood in µM.

chem.smiles: CCOC(=O)/C=C/[C@H](C[C@@H]1CCNC1=O)NC(=O)c1ccc2cc(C)ccc2c1
unit.string: µM
EC50: 0.88
--
chem.smiles: CCOC(=O)/C=C/[C@H](C[C@@H]1CCNC1=O)NC(=O)/C=C/c1ccc([N+](=O)[O-])cc1
unit.string: µM
EC50: 1.53
--
chem.smiles: CCOC(=O)/C=C/[C@H](C[C@@H]1CCNC1=O)NC(=O)c1cc2cc(C)ccc2[nH]1
unit.string: µM
EC50: 2.14
--
chem.smiles: CCOC(=O)/C=C/[C@H](C[C@@H]1CCNC1=O)NC(=O)c1cc2cc(OC)ccc2[nH]1
unit.string: µM
EC50: 2.36
--
chem.smiles: CCOC(=O)/C=C/[C@H](C[C@@H]1CCNC1=O)NC(=O)c1cc(-c2ccccc2)oc1C
unit.string: µM
EC50: 1.94

// `CCOC(=O)/C=C/[C@H](C[C@@H]1CCNC1=O)NC(=O)c1cc2cc(Br)ccc2n1C` : EC50 value = 3.07

Consider `CCOC(=O)/C=C/[C@H](C[C@@H]1CCNC1=O)NC(=O)c1cc2cc(OC)c(OC)cc2n1C` . Its measured EC50 is 1.36

# EC50 (molecule: `CCOC(=O)/C=C/[C@H](C[C@@H]1CCNC1=O)NC(=O)/C=C/c1ccc2c(c1)OCO2` ) is 1.81

* * *

# Test system: HRV-1A
# method: Antirhinoviral H1-HeLa cell culture assay (cell protection, XTT), HRV-1A
# Assay type: cell-based, human rhinovirus
# measurement.conditions: Rhinovirus A, HRV1A, 48 h, H1-HeLa cells, two days
Labelling: EC50 reported below 5 µM becomes criterion met; at or above becomes criterion not met.

Completed entries (count: 3):
compound: CCOC(=O)/C=C/[C@H](C[C@@H]1CCNC1=O)NC(=O)/C=C/c1cc2c(cc1Br)OCO2 [Compound 49]
discrete.label: criterion met

compound: CCOC(=O)/C=C/[C@H](CCC(N)=O)NC(=O)c1ccc2ccccc2c1 [Compound 25]
discrete.label: criterion not met

compound: CCOC(=O)/C=C/[C@H](CCC(N)=O)NC(=O)c1cc2ccccc2s1 [Compound 26]
discrete.label: criterion not met

Req: Hi there! Is EC50 for CCOC(=O)/C=C/[C@H](C[C@@H]1CCNC1=O)NC(=O)c1ccc2ccc(Br)cc2c1 [Compound 53] below 5 µM, do you know?
Resp: criterion met

* * *

# target.under.test: rhinovirus 3C protease from HRV serotype-14 (Human rhinovirus 14)
# Construct: Recombinant rhinovirus 3C proteases; made in house
# Sequence (P03303 1538-1719): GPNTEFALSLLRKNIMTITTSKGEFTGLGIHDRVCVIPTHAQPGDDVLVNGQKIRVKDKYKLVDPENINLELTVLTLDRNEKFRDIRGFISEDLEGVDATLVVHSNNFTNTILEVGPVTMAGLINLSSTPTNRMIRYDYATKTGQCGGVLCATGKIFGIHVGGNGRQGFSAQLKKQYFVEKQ
# method: Inhibition of rhinovirus 3C protease activity (FRET assay), HRV-14
# Format: biochemical
# measurement.conditions: read-out: Protease Inhibition kobs/I
Could you please classify the records by kinact/KI using these ranges: L (below 2000 M⁻¹ s⁻¹), M (2000 M⁻¹ s⁻¹ to below 5000 M⁻¹ s⁻¹), H (5000 M⁻¹ s⁻¹ or more)

Use the examples below as a reference point.
chem.smiles: CCOC(=O)/C=C/[C@H](C[C@@H]1CCNC1=O)NC(=O)c1cc2cc(OC)ccc2[nH]1
discrete.label: M
//
chem.smiles: CCOC(=O)/C=C/[C@H](C[C@@H]1CCNC1=O)NC(=O)/C=C/c1ccc(F)c(Br)c1
discrete.label: M
//
chem.smiles: CCOC(=O)/C=C/[C@H](C[C@@H]1CCNC1=O)NC(=O)c1cc2cc(Br)ccc2[nH]1
discrete.label: L

Req: In plain terms, what class is `CCOC(=O)/C=C/[C@H](C[C@@H]1CCNC1=O)NC(=O)/C=C/c1ccc(C)c(Br)c1` ?
Resp: M

Req: Hey, which category is `CCOC(=O)/C=C/[C@H](C[C@@H]1CCNC1=O)NC(=O)C1=Cc2cc(Br)ccc2OC1` in, do you know?
Resp: H

Req: Which class does `CCOC(=O)/C=C/[C@H](C[C@@H]1CCNC1=O)NC(=O)COc1ccc(Cl)c(Cl)c1` fall in?
Resp: L

Attribution: patent US6989384B2
